Below, each entry is listed with its recorded inhibition.
- Study System: FAD-linked sulfhydryl oxidase ALR (Homo sapiens)
- Test Summary: ALR-catalysed DTT oxidation blockers – biochemical, H2O2 detection, HRP-luminol luminescence, single point, primary screen (AID 485317)
- Recorded Conditions: purified ALR, stronger effect = higher value, concentration not given here
The campaign covered roughly 290,000 compounds. About 11,000 (3.8%) were called active. Shown is part of a subset that was picked to be rich in actives.
# unit: % | format: bare number

Here's what some known entries look like.
COc1ccccc1C(=O)Nc1ccccc1C(=O)Nc1ccccc1 :: 4.88
CCC(C)N(C(=O)COC(=O)c1nc(Cl)ccc1Cl)C1CCS(=O)(=O)C1 (stereo unspecified) :: 0.398
CCOc1ccc(S(=O)(=O)Nc2ccc(OC)nc2)cc1 :: -0.795
COc1ccc(NC(=O)c2cc(-c3ccc(C)cc3)on2)cc1 :: -7.55
O=C(CSc1ncnc2sccc12)N1CCN(C(=O)c2cccs2)CC1 :: 3.8

--- query ---
inhibition for COCCn1c(C)cc(C(=O)COC(=O)CNC(=O)c2ccco2)c1C is 0.463
